For each record, write down the corresponding IC50.
Target: UniProtKB P14174
Sequence (P14174 whole entry): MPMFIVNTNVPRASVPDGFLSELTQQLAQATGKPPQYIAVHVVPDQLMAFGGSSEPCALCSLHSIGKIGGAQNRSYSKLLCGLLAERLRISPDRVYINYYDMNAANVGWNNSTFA
Experiment: Inhibition of human recombinant macrophage migration inhibitory factor tautomerase activity expressed in Escherichia coli DH5alpha using L-dopachrome methyl ester as substrate incubated for 5 mins prior to substrate addition measured 24 months post determination of initial value by spectrophotometric analysis
Give bare numbers, in µM.

# Compound Structure String, Measure Unit, IC50
data = [
    ("Fc1ccc(CN=C=S)cc1", "µM", 31),
]

We now examine a further molecule.
Endpoint output: IC50 of Fc1cccc(CN=C=S)c1 . Value?
54

====

target: Macrophage migration inhibitory factor (Homo sapiens); experiment: Inhibition of human recombinant macrophage migration inhibitory factor tautomerase activity expressed in Escherichia coli DH5alpha using L-dopachrome methyl ester as substrate incubated for 5 mins prior to substrate addition measured for 2 mins by spectrophotometric analysis
Record form. Attribute: pIC50. Fill in for each entry.
Numbers only, as −log10 of the molar value.

Please review the entries below; each comes with its answer.
# Compound Structure String, pIC50
records = [
    ("S=C=NCc1ccc2c(c1)OCO2", 5.54),
    ("S=C=NCCc1ccc(Cl)cc1", 5.96),
]

Please tell me: pIC50 of Oc1ccc(CCN=C=S)cc1O , system Macrophage migration inhibitory factor (Homo sapiens)?
4.54
